- Measurement target: T1, Macaca fascicularis CD276 (Macaca fascicularis)
- T1 construct: whole, on cells; also called cynomolgus monkey CD276; cynoCD276
- Assay procedure: FACS on CHO-S-cynoCD276 cells
Quantity kind: FACS MFI
Answers are plain numbers.

11-C12-F4-F6 (antibody, V domains shown, mouse monoclonal antibody (hybridoma)) VH: QIQLVQSGPELKKPGETVKISCKASGYTFRNFGMNWVKQGPGKGLKWMGWINPYTGEPTYVGDFKGRFAFSLETSASTAYLQINNLKNEDMATYFCARDDGYWYTMDYWGQGTSVTVSS VL: DVVMTQTPPSLPVSLGDQASIPCRSSQSLVHSNGITYLHWYLQKPGQSPKLLIYKVSNRFSGVPDRFSGSGSGTDFTLKISRVEAEDLGVYFCSQSTHVPWTFGGGTKLEIK	5140

# batch size: 2; output FACS MFI per entry
1. 13-E4-G9-A4 (antibody, V domains shown, mouse monoclonal antibody (hybridoma)) VH: EVMLVESGGGLVKPGGSLKFSCAASGFTFITYAMSWVRQTPEKRLEWVATISGGGIDTYYPDSVKGRFTISRDNAKNTLYLQVNSLRSEDTAMYYCTRQGSQGWGAMDYWGQGTSVTVSS VL: QIVLTQSPPIMSASPGERVTMTCRASSRVSFMHWYQQKSGTSPRRWIYETSKLASGVPDRFSGSVSGTSYSLTISSMEAEDAATYYCQQWSSNPLTFGAGTKLELK
2. 5-D1-G6-D9 (antibody, V domains shown, mouse monoclonal antibody (hybridoma)) VH: EVQLQESGAELVKPGASVKLSCKTSGLTFSTNYISWLKQKPGQSLEWIAWIYGGNGGTSYNQRFTGKAQLTVDTSSSTAYMQFSSLTTEDSAIYYCTSHDYYGGPMDYWGQGTSVTVSS VL: DIQMTQTTSSLSASLGDRVTISCRASQDISNYLNWYQQKPDGTVKLLIYFTSRLHSGVPSRFSASGSGTDYSLTISNLEQEDIATYFCQQTNTLPWTFGGGTKLEIK

[out]
16800
62200

Reference source for all entries: patent US20240400689A1
